System: BDF1 mice, P388 leukemia ip, median survival T/C
Experiment: NCI In Vivo Anticancer Drug Screen. Data for tumor model P388 Leukemia (intraperitoneal) in B6D2F1 (BDF1) mice
Conditions: endpoint: median survival time; dose: 100.0 mg/kg/injection; schedule: Q01DX009 (ip); vehicle: saline
Toxic doses and inconclusive results are not listed. The calls were made as follows: active = survival T/C of 150% or more; inactive = T/C below 125% in these data.
A correct response names exactly one class from TRUE for active, FALSE for inactive

For CC(/C=C/c1ccccc1)=N\NC(=O)CN(C)C , which call appears in the assay record?
FALSE

For CCN1c2c(nc(N)[nH]c2=O)NCC1CNc1ccc(C(=O)NC(CCC(=O)O)C(=O)O)cc1 (stereo not given) , which call appears in the assay record?
FALSE

For OC1OCCOC1O (stereo not given) , which call appears in the assay record?
TRUE

For C=CCNc1ncnc2c1cnn2C , which call appears in the assay record?
FALSE

For CC(N)c1ccccc1 (stereo not given) (tested in a mixture with another compound) , which call appears in the assay record?
FALSE

For CC(Br)C(=O)NCC(=O)NCC(=O)O (stereo not given) , which call appears in the assay record?
FALSE

For COc1cc2cc(-c3cc(OC)c(OC)c(OC)c3)c3c(c2cc1OC)CNC3=O , which call appears in the assay record?
FALSE

For CC1(c2cccs2)C(=O)N(Cl)C(=O)N1Cl (stereo not given) , which call appears in the assay record?
FALSE

For CC(=O)OC1CCC2(C)C3CCC4(C)C(O)CCC4C3CC(O)C2(O)C1 (stereo not given) , which call appears in the assay record?
FALSE

For CO[C@H]1/C=C/O[C@@]2(C)Oc3c(C)c(O)c4c(O)c(c(/C=N/N5CCNCC5)c(O)c4c3C2=O)NC(=O)/C(C)=C\C=C\[C@H](C)[C@H](O)[C@@H](C)[C@@H](O)[C@@H](C)C(OC(C)=O)[C@@H]1C (stereo not given in full) , which call appears in the assay record?
FALSE
